- Tested on: normal primary NK cells, pool 3 (3 donors) (IL-2 2.5 ng/mL);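 note: normalised to DMSO-only wells as negative and benzethonium chloride as positive control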
- protocol-notes: percent inhibition of viability; higher = more inhibition
- condition-details: 72 h; 1000 nM
Below, each of the compounds is paired with its reported percent inhibition of viability value.
measure: percent inhibition of viability (%)

compound	measure	experimental-value
CN(C)CCOc1ccc(/C(=C(/CCCl)c2ccccc2)c2ccccc2)cc1 [Toremifene] (max concentration tested 10000 nM)	percent inhibition of viability	5.83
CN1CCC(CNc2ccc3ncc(-c4cccc(OC(F)(F)F)c4)n3n2)CC1 [SGI-1776] (max concentration tested 10000 nM)	percent inhibition of viability	7.82
CCCCc1nc2cc(/C=C/C(=O)NO)ccc2n1CCN(CC)CC [Pracinostat] (max concentration tested 10000 nM)	percent inhibition of viability	97.8
